# measured-target: Human GLP-1 receptor (human, UniProt P43220 24-463)
# Sequence (P43220 24-463): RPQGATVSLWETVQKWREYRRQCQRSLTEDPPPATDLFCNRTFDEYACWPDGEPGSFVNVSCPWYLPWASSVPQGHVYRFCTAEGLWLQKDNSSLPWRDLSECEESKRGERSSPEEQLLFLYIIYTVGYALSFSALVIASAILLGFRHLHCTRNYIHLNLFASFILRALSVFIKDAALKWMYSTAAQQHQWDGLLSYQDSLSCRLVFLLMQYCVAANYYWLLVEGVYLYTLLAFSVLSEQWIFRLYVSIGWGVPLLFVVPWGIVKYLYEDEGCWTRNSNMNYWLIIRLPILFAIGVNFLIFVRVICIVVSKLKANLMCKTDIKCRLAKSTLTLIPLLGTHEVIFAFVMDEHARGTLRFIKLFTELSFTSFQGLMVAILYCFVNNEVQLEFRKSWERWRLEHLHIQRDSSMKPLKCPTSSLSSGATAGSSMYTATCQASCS
# experimental-protocol: cell-based or functional assay
Where no end group is shown, it is not given here. [ ]: non-standard residue; d: D form. Aib = CC(C)(N)C(=O)O
measurement-label: cAMP release, % activity with respect to control; test compound 1 nM (%)

Example cases with answers are listed next.
HSQGTXTSDXX (α-Me-2F-Phe at 6; Bip(OMe) at 10; Bip(2CF3) at 11) [Seq. ID. No. 24: HSQGT-(α-Me-2F-Phe)-TSD-Bip(OMe)-Bip(2CF3)] = 41
HXQGTXTSDXX (Aib at 2; α-Me-2F-Phe at 6; Bip(OMe) at 10; Bip(Pyr) at 11) [Seq. ID. No. 30: H-Aib-QGT-(α-Me-2F-Phe)-TSD-Bip(OMe)-Bip(Pyr)] = 93
HXQGTXTSDXX (Aib at 2; α-Me-2F-Phe at 6; Bip(OMe) at 10; Bip(2CF3) at 11; C-terminal amide (CONH2)) [Seq. ID. No. 32: H-Aib-QGT-(α-Me-2F-Phe)-TSD-Bip(OMe)-Bip(2CF3)] = 99
HXQGTXTSDXX (Aib at 2; α-Me-2F-Phe at 6; Bip(OMe) at 10; Bip(2F) at 11) [Seq. ID. No. 31: H-Aib-QGT-(α-Me-2F-Phe)-TSD-Bip(OMe)-Bip(2F)] = 93

(1) HXQGTXTSDXX (not fully specified; ACP at 2; α-Me-2F-Phe at 6; Bip(OMe) at 10; Bip(2F) at 11) [Seq. ID. No. 35: H-(ACP)-QGT-(α-Me-2F-Phe)-TSD-Bip(OMe)-Bip(2F)]
(2) H[Aib]QGTFTSD[Bip(OMe)][Bip(2Me)] [Seq. ID. No. 13: H-Aib-QGTFTSD-Bip(OMe)-Bip(2Me)]
IN: # return whichever of 1 and 2 has the smaller cAMP release, % activity with respect to control; test compound 1 nM # answer = label of selected item
OUT: 2
(2: 60%, 1: 99%)
